Source: the RNAGym collection of RNA variant scans (doi:10.1101/gr.219683.116)

Measured exon inclusion enrichment index, listed per entry.
B1: mRNA-splicing (parent)
chain: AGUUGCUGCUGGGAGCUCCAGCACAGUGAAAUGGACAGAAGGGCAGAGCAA

variants of: B1; test: exon inclusion enrichment index; higher = more inclusion; WT1 exon 5 minigene, HEK293
A bare number is all that is needed in reply.

Worked set:
[[record]]
variant_description = "G5C C6A U7C G8A U10A G15U C16A"
observation_type = "exon inclusion enrichment index"
number = 0.0461

[[record]]
variant_description = "G5C C6G U7C U10A G11C"
observation_type = "exon inclusion enrichment index"
number = 3.41

[[record]]
variant_description = "G5C C6G U7C U10C A29U A30G"
observation_type = "exon inclusion enrichment index"
number = 3.83


// C6A U7C C9A U10C U32A : exon inclusion enrichment index value = 3.06

exon inclusion enrichment index for U4A G5A C6U U7A G8U C9A is 0.0542

exon inclusion enrichment index for G5C C6A U7C G8A U10A G46C A47G is 0.199

Lookup result for G5U G8U C9U A39U A40C ; measured exon inclusion enrichment index: 0.287

Noted for C18G C19U : its exon inclusion enrichment index reads 0.777

exon inclusion enrichment index reported for this variant G5U G8U C9U C24U A25U : 0.127

exon inclusion enrichment index in this record for C6A U7C C9A U10C A29C A30U : 2.76

// field: exon inclusion enrichment index; key: G5A U7C U10C ; value = 4.21
